System: A549-ACTB-RAB5A
Assay: lowest phenotypically active concentration; higher = less potent
Details: treatment time: 24 h
Where a name gives a salt, the structure may show the parent alone.
In this section, each of the compounds is paired with its reported lowest phenotypically active concentration.
metricName: lowest phenotypically active concentration (µM)

[
  {
    "compound": "COC[C@H]1OC(=O)c2coc3c2[C@@]1(C)C1=C(C3=O)[C@@H]2CCC(=O)[C@@]2(C)C[C@H]1OC(C)=O [wortmannin]",
    "unitString": "µM",
    "cmp": "=",
    "resultNumber": 1
  },
  {
    "compound": "CC[C@H]1CN2CCc3cc(OC)c(OC)cc3[C@@H]2C[C@@H]1C[C@H]1NCCc2cc(OC)c(OC)cc21 [emetine]",
    "unitString": "µM",
    "cmp": "≤",
    "resultNumber": 0.3
  },
  {
    "compound": "O=C(NCCN1CCC2(CC1)C(=O)NCN2c1cccc(F)c1)c1ccc(F)c(F)c1 [ML 298 hydrochloride]",
    "unitString": "µM",
    "cmp": "=",
    "resultNumber": 3
  },
  {
    "compound": "CCN1CCN(C(=O)Cc2ccc(Nc3ncc(F)c(Nc4ccc(C(=O)Nc5ccccc5Cl)cc4)n3)cc2)CC1",
    "unitString": "µM",
    "cmp": "=",
    "resultNumber": 1
  },
  {
    "compound": "COc1cc2c(c(OC)c1OC)-c1ccc(O)c(=O)cc1[C@@H](N)CC2 [Trimethylcolchicinic acid]",
    "unitString": "µM",
    "cmp": "=",
    "resultNumber": 9
  },
  {
    "compound": "Cc1sc2c(c1C)C(c1ccc(Cl)cc1)=N[C@@H](CC(=O)OC(C)(C)C)c1nnc(C)n1-2",
    "unitString": "µM",
    "cmp": "≤",
    "resultNumber": 0.3
  },
  {
    "compound": "C[C@]12CC[C@H](O)C[C@H]1CC[C@@H]1[C@@H]2C[C@@H](O)[C@]2(C)[C@@H](C3=CC(=O)OC3)CC[C@]12O [Digoxigenin]",
    "unitString": "µM",
    "cmp": "≤",
    "resultNumber": 0.3
  },
  {
    "compound": "CC(C)(O)[C@H]1O[C@H]2CC[C@@]3(C)[C@@](O)(CC[C@H]4Cc5c([nH]c6ccccc56)[C@@]43C)C2=CC1=O [paxilline]",
    "unitString": "µM",
    "cmp": "=",
    "resultNumber": 9
  },
  {
    "compound": "C[C@@]12C(=O)OC(=O)[C@]1(C)[C@H]1CC[C@@H]2O1 [Cantharidin]",
    "unitString": "µM",
    "cmp": "=",
    "resultNumber": 3
  },
  {
    "compound": "C=C1[C@@H](C)[C@H]2[C@H](Cc3ccccc3)NC(=O)[C@]23OC(=O)C=C[C@H](O)CCC[C@@H](C)CC=C[C@H]3[C@@H]1O [Cytochalasin B]",
    "unitString": "µM",
    "cmp": "≤",
    "resultNumber": 0.3
  },
  {
    "compound": "C[C@]12CC[C@H]3[C@@H](CC[C@]4(O)C[C@@H](O)CC[C@]34C=O)[C@@]1(O)CC[C@@H]2C1=CC(=O)OC1 [Strophanthidin]",
    "unitString": "µM",
    "cmp": "≤",
    "resultNumber": 0.3
  },
  {
    "compound": "CN1CCC2=C[C@H](O)[C@H]3OC(=O)c4cc5c(cc4[C@H]3[C@@H]21)OCO5 [Hippeastrine hydrobromide]",
    "unitString": "µM",
    "cmp": "=",
    "resultNumber": 9
  },
  {
    "compound": "N#CC(C#N)=NNc1ccc(OC(F)(F)F)cc1",
    "unitString": "µM",
    "cmp": "=",
    "resultNumber": 9
  },
  {
    "compound": "COc1ccc(N(C(=O)Oc2c(C)cccc2C)c2ccnc(Nc3ccc(N4CCN(C)CC4)cc3)n2)c(OC)c1",
    "unitString": "µM",
    "cmp": "=",
    "resultNumber": 1
  },
  {
    "compound": "COc1ccc2c(c[n+](C)c3c4cc5c(cc4ccc23)OCO5)c1OC [Chelerythrine chloride]",
    "unitString": "µM",
    "cmp": "=",
    "resultNumber": 3
  }
]

Reference source for all entries: the supplement of paper PMC7411054
